- target.system: T1, HsLARP6(70-300) R244A (Homo sapiens, UniProt Q9BRS8 70-300, R244A)
- T1 sequence: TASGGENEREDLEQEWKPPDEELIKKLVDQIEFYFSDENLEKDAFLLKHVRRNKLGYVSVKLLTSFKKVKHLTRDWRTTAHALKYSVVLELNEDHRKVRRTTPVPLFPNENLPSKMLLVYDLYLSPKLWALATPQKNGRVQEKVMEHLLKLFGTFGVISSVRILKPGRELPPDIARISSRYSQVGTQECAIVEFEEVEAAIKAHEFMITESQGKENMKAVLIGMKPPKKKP
- experiment.summary: ITC; ITC: 20 mM Tris pH 7.25, 100 mM KCl, 5 mM MgCl2, 1 mM DTT, 298 K; protein titrated into RNA
- measurement.parameters: protein: recombinant; tags: N-terminal His6 (TEV-cleavable); stem-loop with internal bulge

{"columns": ["binder", "Kd [nM]"],
 "data": [
  ["CCACAAAGAGUCUACAUGUCUAGGGUCUAGACAUGUUCAGCUUUGUGG (structured_RNA) [48 nt RNA (collagen alpha1(I) 5' UTR SL)]", 71]
]}
